Please provide measured pIC50 for the entries that follow.
target: Prostaglandin E2 receptor EP1 subtype (Homo sapiens, UniProt P34995); assay: Displacement of [3H]PGE2 from human PGE2-EP1 receptor expressed in CHO-K1 cells
Sequence (P34995 whole entry): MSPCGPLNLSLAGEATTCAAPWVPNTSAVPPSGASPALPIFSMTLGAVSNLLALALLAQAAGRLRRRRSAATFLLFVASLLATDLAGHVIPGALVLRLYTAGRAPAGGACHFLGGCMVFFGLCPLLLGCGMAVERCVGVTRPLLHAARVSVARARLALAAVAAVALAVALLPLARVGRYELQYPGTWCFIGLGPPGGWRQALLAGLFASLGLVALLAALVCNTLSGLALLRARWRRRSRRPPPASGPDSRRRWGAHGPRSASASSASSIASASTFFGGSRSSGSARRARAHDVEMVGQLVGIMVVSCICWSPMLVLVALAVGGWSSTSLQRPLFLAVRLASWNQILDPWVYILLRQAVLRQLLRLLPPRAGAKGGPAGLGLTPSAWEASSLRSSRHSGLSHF
Answers are plain numbers, as −log10 of the molar value.

• Cc1cc(NC(=O)C(F)(F)c2ccccc2)nn1Cc1cc(Cl)ccc1OCc1ccccc1 = 7.40
• Cc1cc(NC(=O)OC(C)(C)C)nn1Cc1cc(Cl)ccc1OCC(C)C = 7.50
• Cc1cc(NC(=O)C(C)(C)c2ccccn2)nn1Cc1cc(Cl)ccc1OCc1ccccc1 = 7.80
• Cc1cc(C(N)=O)nn1Cc1cc(Cl)ccc1OCc1ccccc1 = 6.90

Could you now look at the following compound, please?
Lab book: pIC50 of `Cc1cc(NC(=O)Cc2ccccn2)nn1Cc1cc(Cl)ccc1OCc1ccccc1` noted as 7.70

----------
assay: Ratio of drug level in brain to blood in FCA-induced hypersensitivity rat at 1 mg/kg, po administered with DMSO as vehicle; format: ADME, organism-based; parameters: dose 1 mg/kg, route oral
measured.attribute: Kp
Give bare numbers.

compound `Cc1cc(NC(=O)OC(C)(C)C)nn1Cc1cc(Cl)ccc1OCc1ccccc1` , Kp observed: 2.66

----------
assay: Ratio of drug level in brain to blood in Sprague-Dawley rat at […], iv; assay type: ADME, organism-based; design: route intravenous
measured.attribute: Kp
Numbers only.

Recorded result, `Cc1cc(NC(=O)OC(C)(C)C)nn1Cc1cc(Cl)ccc1OCc1ccccc1` , Kp: 3.44

----------
molecular target: Prostaglandin E2 receptor EP1 subtype (Homo sapiens, UniProt P34995); assay: Displacement of [3H]PGE2 from human PGE2-EP1 receptor expressed in CHO-K1 cells
measured.attribute: IC50 (nM)
Answers are plain numbers, in nM.

• O=C(Nc1ccn(Cc2cc(Cl)ccc2OCc2ccccc2)n1)c1ccccc1 = 251
• O=C(Cc1ccccc1)Nc1ccn(Cc2cc(Cl)ccc2OCc2ccccc2)n1 = 158
• Cc1cc(C(=O)O)nn1Cc1cc(Cl)ccc1OCc1ccccc1 = 10

Count: 6. Required value per item: IC50.
1. Cc1cc(C(=O)NCc2ccncc2)nn1Cc1cc(Cl)ccc1OCc1ccccc1
2. Cc1cc(NC(=O)C2CCOC2)nn1Cc1cc(Cl)ccc1OCc1ccccc1 (stereo not given)
3. Cc1cc(NC(=O)C(F)(F)c2ccccn2)nn1Cc1cc(Cl)ccc1OCc1ccccc1
4. Cc1cc(NC(=O)O[C@H]2CCOC2)nn1Cc1cc(Cl)ccc1OCc1ccccc1
5. Cc1cc(NC(=O)OC(C)C)nn1Cc1cc(Cl)ccc1OCC(C)C
6. Cc1cc(NC(=O)C2CCCC2)nn1Cc1cc(Cl)ccc1OCC(C)C

Reply:
1. 79.4
2. 39.8
3. 25.1
4. 79.4
5. 50.1
6. 25.1

IC50 for `Cc1cc(C(=O)NN2CCCCC2)nn1Cc1cc(Cl)ccc1OCC(C)C` is 200

----------
tested on: Blood; test: Drug uptake in FCA-induced hypersensitivity rat blood at 1 mg/kg, po administered with DMSO as vehicle; type: ADME, organism-based; parameters: dose 1 mg/kg, route oral; conditions: in vivo, read-out: Drug uptake
measured.attribute: concentration
Returns: string containing the number followed by the unit.

# compound `Cc1cc(NC(=O)OC(C)(C)C)nn1Cc1cc(Cl)ccc1OCc1ccccc1` ; its concentration = 57 nM

----------
system: Brain; experiment: Drug uptake in FCA-induced hypersensitivity rat brain at 30 mg/kg, po administered with DMSO as vehicle; format: ADME, organism-based; parameters: dose 30 mg/kg, route oral; conditions: in vivo, read-out: Drug uptake
measured.attribute: concentration (nM)
Answers are plain numbers, in nM.

Per the records, this molecule ( `Cc1cc(NC(=O)OC(C)(C)C)nn1Cc1cc(Cl)ccc1OCc1ccccc1` ) has concentration equal to 836

----------
assay: Drug level in Sprague-Dawley rat blood at steady state at […], iv after 18 hrs; format: ADME, organism-based; design: route intravenous; conditions: whole blood, read-out: Drug uptake
measured.attribute: concentration at 18 h (nM)
Give bare numbers, in nM.

Recorded concentration at 18 h (compound `Cc1cc(NC(=O)OC(C)(C)C)nn1Cc1cc(Cl)ccc1OCc1ccccc1` ): 408

----------
test: Distribution coefficient, logD at pH 7.4; format: physicochemical; conditions: octanol/water
Please respond with reported logD for every item in the list.

- Cc1cc(NC(=O)OCc2ccccn2)nn1Cc1cc(Cl)ccc1OCc1ccccc1: 3.1
- Cc1cc(C(=O)O)nn1Cc1cc(Cl)ccc1OCc1ccccc1: 1
- Cc1cc(NC(=O)OCc2ccccc2)nn1Cc1cc(Cl)ccc1OCc1ccccc1: 3.1
- Cc1cc(C(=O)NN2CCCCC2)nn1Cc1cc(Cl)ccc1OCC(C)C: 3.3
- CNC(=O)c1cc(C)n(Cc2cc(Cl)ccc2OCc2ccccc2)n1: > 3.7
- Cc1cc(NC(=O)Cc2ccccn2)nn1Cc1cc(Cl)ccc1OCc1ccccc1: > 3.7
- Cc1cc(NC(=O)OC(C)(C)C)nn1Cc1cc(Cl)ccc1OCc1ccccc1: > 3.7
- Cc1cc(NC(=O)OC(C)(C)C(F)(F)F)nn1Cc1cc(Cl)ccc1OCC(C)C: 3.5

Batch of 2 compounds: report logD for each.
1. Cc1cc(NC(=O)C2CCCC2)nn1Cc1cc(Cl)ccc1OCC(C)C
2. Cc1cc(NC(=O)C2CCCCC2)nn1Cc1cc(Cl)ccc1OCC(C)C

Reply:
1: > 3.7; 2: > 3.7

----------
assay: Distribution coefficient, logD at pH 7.4; type: physicochemical; settings: octanol/water
measured.attribute: logD

• Cc1cc(NC(=O)OC(C)C)nn1Cc1cc(Cl)ccc1OCc1ccccc1 = > 3.7

Batch of 8 compounds: report logD for each.
1. Cc1cc(C(=O)Nc2ccccc2)nn1Cc1cc(Cl)ccc1OCc1ccccc1
2. Cc1cc(NC(=O)C2CCCC2)nn1Cc1cc(Cl)ccc1OCc1ccccc1
3. Cc1cc(NC(=O)Cc2ccncc2)nn1Cc1cc(Cl)ccc1OCc1ccccc1
4. Cc1cc(C(=O)O)nn1Cc1cc(Br)ccc1OCc1ccccc1
5. Cc1cc(NC(=O)Cc2cccnc2)nn1Cc1cc(Cl)ccc1OCc1ccccc1
6. Cc1cc(NC(=O)C2CCOCC2)nn1Cc1cc(Cl)ccc1OCc1ccccc1
7. Cc1cc(NC(=O)c2c(F)cccc2F)nn1Cc1cc(Cl)ccc1OCc1ccccc1
8. Cc1cc(C(=O)Nc2ccccn2)nn1Cc1cc(Cl)ccc1OCc1ccccc1

Reply:
> 3.7
3.5
> 3.7
1.2
> 3.7
> 3.7
> 3.7
> 3.7

Give logD for each listed item.
1. Cc1cc(NC(=O)CC(C)(C)C)nn1Cc1cc(Cl)ccc1OCc1ccccc1
2. Cc1cc(C(=O)NCc2ccccc2)nn1Cc1cc(Cl)ccc1OCc1ccccc1
3. Cc1cc(NC(=O)C(F)(F)c2ccccn2)nn1Cc1cc(Cl)ccc1OCc1ccccc1

Reply:
1: > 3.7; 2: > 3.7; 3: 3.1

// input: 2 compounds below; output: logD for each
1. Cc1cc(NC(=O)Cc2ccccc2)nn1Cc1cc(Cl)ccc1OCc1ccccc1
2. Cc1cc(NC(=O)OC2CCOCC2)nn1Cc1cc(Cl)ccc1OCC(C)C

Reply:
["> 3.7", 3.4]

Record logD for all entries; do not skip any.
1. Cc1cc(C(=O)Nc2ccc(F)cc2)nn1Cc1cc(Cl)ccc1OCc1ccccc1
2. Cc1ccc(-c2cc(Cl)ccc2OCc2ccccc2)n1-c1cccc(C(=O)O)c1
3. Cc1cc(NC(=O)C(F)(F)c2ccccc2)nn1Cc1cc(Cl)ccc1OCc1ccccc1
4. Cc1cc(NC(=O)C2CCOC2)nn1Cc1cc(Cl)ccc1OCc1ccccc1 (centres undefined)

Reply:
1. 3
2. 2.5
3. > 3.7
4. > 3.7

Query `CCOC(=O)Nc1cc(C)n(Cc2cc(Cl)ccc2OCc2ccccc2)n1` yields logD of > 3.7

----------
assay: Clearance at steady state in Sprague-Dawley rat blood at […], iv after 18 hrs; type: ADME, organism-based; parameters: route intravenous; details: whole blood
measured.attribute: clearance (mL/min/kg)
One number for each entry, in mL/min/kg.

clearance reading for `Cc1cc(NC(=O)OC(C)(C)C)nn1Cc1cc(Cl)ccc1OCc1ccccc1` : 54

----------
molecular target: Prostaglandin E2 receptor EP1 subtype (Homo sapiens); experiment: Displacement of [3H]PGE2 from human PGE2-EP1 receptor expressed in CHO-K1 cells
Can you tell me pIC50 for the items I'm about to list?
Give bare numbers, as −log10 of the molar value.

- Cc1cc(NC(=O)C(C)C)nn1Cc1cc(Cl)ccc1OCc1ccccc1: 7.60
- CNC(=O)c1cc(C)n(Cc2cc(Cl)ccc2OCc2ccccc2)n1: 7.00
- COC(=O)Nc1cc(C)n(Cc2cc(Cl)ccc2OCc2ccccc2)n1: 6.70
- CC(=O)Nc1cc(C)n(Cc2cc(Cl)ccc2OCc2ccccc2)n1: 6.50

compound `Cc1cc(NC(=O)OC(C)(C)C)nn1Cc1cc(Cl)ccc1OCc1ccccc1` , pIC50 observed: 7.60
